- System: SNB-75
- measurementNotes: NCI tumour cell line growth inhibition, 48 h
The source made the active and inactive calls. Cut-off read from the data, not from the text of the source: active = GI50 up to about 1.1 µM and inactive = higher.
measure: GI50

// input: 3 compounds below; output: GI50 for each
1. C[n+]1c(-c2ccc(/C=N/Nc3n[nH]c(=S)n3N/N=C/c3ccc(-c4cn5ccccc5[n+]4C)cc3)cc2)cn2ccccc21
2. CCCCCCCCCCCC(=O)OCC1OC(n2cc(F)c(=O)[nH]c2=O)C(NC(=O)OCc2ccccc2)C(OC(=O)CCCCCCCCCCC)C1O (stereo not drawn)
3. COC1C(=O)CCC2(CO2)C1(O)C1(C)OC1CCC(C)C (stereo not drawn)

> 100 µM (inactive)
> 100 µM (inactive)
> 100 µM (inactive)

###

- Test system: SR
- measurementNotes: NCI tumour cell line growth inhibition, 48 h
Active and inactive are the calls of the source. Cut-off read from the data, not from the text of the source: active = GI50 up to about 1.1 µM and inactive = higher.
measure: GI50

                                   compound  measure           assayvalue
0  O=C1O[C@H](COC(=O)c2ccccc2)[C@@H](OC(=O)c2ccccc2)C=C1OC(=O)c1ccccc1     GI50   18.5 µM (inactive)
1       CCCCNC(=S)N/C=C1\C(=O)Nc2ccccc2C1=O     GI50   > 10 µM (inactive)
2  COC1C(=O)CCC2(CO2)C1(O)C1(C)OC1CCC(C)C (configuration not stated)     GI50  > 100 µM (inactive)

// input: 4 compounds below; output: GI50 for each
1. CCOC(=O)C(NC(=O)c1cccc(Cl)c1)(N1CCN(c2cc3c(cc2F)c(=O)c(C(=O)O)cn3CC)CC1)C(F)(F)F (configuration not stated)
2. COC(=O)C(CNC(=O)/C=C/c1ccc(OC(C)=O)c(OC(C)=O)c1)NC(=O)/C=C/c1ccc(OC(C)=O)c(OC(C)=O)c1 (configuration not stated)
3. O=C(OCN1C(=O)C2C3C=CC(C2C1=O)C1C2C(=O)N(COC(=O)C4CCCN4)C(=O)C2C31)C1CCCN1 (configuration not stated)
4. Cc1cc(C)c(C)c(-n2[nH]c(=O)n(C)c2=O)c1C

1. 17.1 µM (inactive)
2. 92.9 µM (inactive)
3. < 0.01 µM (active)
4. > 100 µM (inactive)

###

- Test system: NCI/ADR-RES
- measurementNotes: NCI tumour cell line growth inhibition, 48 h
Active and inactive are the calls of the source. No stated cut-off is given here; in the data, active = GI50 up to about 1.1 µM and inactive = higher.
measure: GI50

Consider the following illustrative entries.
compound	assayValue
Nn1c(Cc2ccc([N+](=O)[O-])cc2)n[nH]c1=O	> 100 µM (inactive)
NC(=O)c1nnc2c(F)cccc2c1N	> 100 µM (inactive)
C[N+](C)(C)CCN(Cc1cccs1)c1ccccn1	> 100 µM (inactive)
COC(=O)C1=C(OC(=O)/C(=C/c2c(F)cccc2F)c2ccccc2)C(C(=O)OC)[C@@]2(O)[C@@H](C(=O)OC)[C@H](C)C[C@@H]1[C@@H]2C(=O)OC (some centres undefined)	> 100 µM (inactive)
COC(=O)C1=CSC2(S1)C(C(=O)OC)=CSc1c2ssc1=O (centres undefined)	2.87 µM (inactive)
[O-][n+]1c2c([n+]([O-])c3ccccc31)-c1cccc3cccc-2c13	> 100 µM (inactive)
Nc1ccc(S(=O)(=O)NCc2nccs2)cc1	23.8 µM (inactive)
c1ccc(/C(=N/Nc2nc3ccccc3s2)C2CCCCC2)nc1	2.58 µM (inactive)

Shifting focus to the compound that follows.
Identify GI50 associated with the compound CC1=NN(C2=NS(=O)(=O)c3ccccc3N2C)C(=O)C1
> 100 µM (inactive)

###

- Test system: OVCAR-8
- measurementNotes: NCI tumour cell line growth inhibition, 48 h
Active and inactive are the calls of the source. No stated cut-off is given here; in the data, active = GI50 up to about 1.1 µM and inactive = higher.
The reply should name one outcome from active, inactive

Reference set, count: 2
>>> print(df.to_string())
                                   compound  testtarget  classification
0  CN(C)c1ccc(/C=C2\CNC/C(=C\c3ccc(N(C)C)cc3)C2=O)cc1     OVCAR-8        inactive
1                O=c1c2ccccc2sc2nc(CCl)nn12     OVCAR-8        inactive

Would you mind telling me which call this test gave Cc1ccc(S(=O)(=O)N(/N=C/C=C/c2ccccc2)c2nnc(-c3ccccc3)c(-c3ccccc3)n2)cc1 ?
inactive

Would you mind telling me which call this test gave CC(=O)/C(=C\c1cccc([N+](=O)[O-])c1)C(=O)Nc1ccccc1C ?
inactive

Would you mind telling me which call this test gave COc1c(C)c2c(c(O)c1C/C=C(\C)CCC(=O)O)C(=O)OC2 ?
active

Would you mind telling me which call this test gave O=[N+]([O-])/C(C(Cl)=C(Cl)Cl)=C(\N1CCCCC1)n1nnc2ccccc21 ?
inactive

Would you mind telling me which call this test gave CC(C)(C)OC(=O)N1CC(COS(C)(=O)=O)c2ccc(O)cc21 (configuration not stated) ?
inactive

###

- System: HOP-92
- measurementNotes: NCI tumour cell line growth inhibition, 48 h
Active and inactive are the calls of the source. Rule as the data show it: active = GI50 up to about 1.1 µM and inactive = higher.
The reply should name one outcome from label 1 for active, label 0 for inactive

Reference set, count: 6
>>> df
                                   compound  classification
0  C[C@@H](c1ccccc1)C(CC#N)[C@H]1CCC[C@]1(O)C#Cc1ccc2c(c1)OCO2 (some centres undefined)         label 0
1  COc1cccc(/C=C(\NC(C)=O)c2nc3cc(Cl)ccc3[nH]2)c1         label 0
2  O[C@@]12Cc3c([nH]c4ccccc34)[C@@H]3Oc4c(-c5ccccc5)ccc5c4[C@@]31CCN(CC1CC1)[C@@H]2C5         label 0
3             Nc1ccc(S(=O)(=O)NCc2nccs2)cc1         label 0
4  CN(C)C(=S)N1C(=S)N(c2ccccc2)C(=N/c2ccccc2)/C1=N\c1ccccc1         label 0
5  COc1ccc(NC(=O)C(=O)Cc2nc3ccc([N+](=O)[O-])cc3nc2O)c(OC)c1         label 0

Consider now this further compound.
Would you mind telling me which call this test gave C[N+](C)(C)CC1Cc2ccccc2C1=O (centres undefined) ?
label 0

###

- Tested on: HOP-62
- measurementNotes: NCI tumour cell line growth inhibition, 48 h
Active and inactive are the calls of the source. Cut-off read from the data, not from the text of the source: active = GI50 up to about 1.1 µM and inactive = higher.
Field: GI50. Provide a value for each of the molecules that follow.

Consider the following illustrative entries.
molecule	GI50
C#C[C@]1(O)CC[C@H]2[C@@H]3CCC4=C/C(=N/OC(=O)c5cccc6c(=O)c7ccccc7[nH]c56)CCC4[C@H]3CC[C@@]21CC (some centres not stated)	49.1 µM (inactive)
O=c1[nH]c(=O)n(C2CC(O)C(O)C(CO)O2)cc1F (configuration not stated)	> 100 µM (inactive)
COCN1C(=O)[C@@H]2C[C@@H](OC/C=C/CBr)CN2C(=O)c2ccccc21	22.7 µM (inactive)
Nc1ccc2c(c1)C(=O)N(O)C2=O	> 100 µM (inactive)
CN(C)C(=O)OCOC(=O)N(C)C	> 100 µM (inactive)

// input: 5 molecules below; output: GI50 for each
1. O=C(O)CNc1cc(-c2ccccc2)nc(NCC(=O)O)n1
2. C/C=C/C=C/c1nc(C#N)c(N)o1
3. O[C@@]12Cc3c([nH]c4ccccc34)[C@@H]3Oc4c(-c5ccccc5)ccc5c4[C@@]31CCN(CC1CC1)[C@@H]2C5
4. CC(NCCN(C)C)C1CCC2C3CCc4cc(O)ccc4C3CCC12C (configuration not stated)
5. O=C(O)c1cc(-c2ccc3c(O)c(O)ccc3c2)ccc1O

1: > 100 µM (inactive); 2: > 100 µM (inactive); 3: 1.51 µM (inactive); 4: 3.24 µM (inactive); 5: > 75 µM (inactive)

###

- Tested on: SNB-75
- measurementNotes: NCI tumour cell line growth inhibition, 48 h
Activity calls are given as the source filed them. No stated cut-off is given here; in the data, active = GI50 up to about 1.1 µM and inactive = higher.
Field: GI50. Provide a value for each of the compounds that follow.

Consider the following illustrative entries.
                                   compound           assayvalue
0  O=C(O)CC(NC(=O)/C(=C/c1ccccc1)NC(=O)c1ccccc1)C(=O)O (configuration not stated)  > 100 µM (inactive)
1  CC1(c2ccccc2Cl)C(C#N)C(=O)NC(=O)C1C#N (configuration not stated)   24.8 µM (inactive)
2  CC(=O)[C@]1(C)[C@H](C)O[C@](C)(CO)[C@H]1O[Si](C)(C)c1ccccc1  > 100 µM (inactive)
3  Cc1c2c(n3c(nc4ccccc43)c1C#N)N(c1ccc(Cl)cc1)CC2  > 100 µM (inactive)

// input: 3 compounds below; output: GI50 for each
1. CC1C(C#N)(C#N)C(C#N)=C(N)C1(C)[N+](=O)[O-] (configuration not stated)
2. CON(C)C(=O)C(C)NC(=O)OC(C)(C)C (configuration not stated)
3. Cc1noc(C)c1-n1nc2ccc3nonc3c2n1

["89.5 µM (inactive)", "> 100 µM (inactive)", "33.1 µM (inactive)"]
